Consider the following variants; for each one, report its self-cleavage.
B1: HDV Ribozyme (parent)
chain: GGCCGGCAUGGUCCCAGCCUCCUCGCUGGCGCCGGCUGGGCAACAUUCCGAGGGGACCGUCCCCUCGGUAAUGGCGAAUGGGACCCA

Variants of: B1
Experiment: self-cleavage, relative activity (ratio to wild type); higher = more cleavage; co-transcriptional
When you answer, write just the number.

Value of measured self-cleavage for the entry A42G A87C : 0.521

Value of measured self-cleavage for the entry U23C U79C : 0.232

Value of measured self-cleavage for the entry C33G G55A : 0.218

Value of measured self-cleavage for the entry A43G : 0.618

Value of measured self-cleavage for the entry U46G U65G : 0.712

Value of measured self-cleavage for the entry C32A C58G : 0

Value of measured self-cleavage for the entry G6U U79C : 0.123

Value of measured self-cleavage for the entry U46C A87C : 0.91

Value of measured self-cleavage for the entry C18A G53A : 0.0652

Value of measured self-cleavage for the entry U46C A71G : 1.2

Value of measured self-cleavage for the entry G38A G53U : 0.0567

Value of measured self-cleavage for the entry C3A U9A : 0.657

Value of measured self-cleavage for the entry C64A G81U : 0.379

Value of measured self-cleavage for the entry C7A C22G : 0.0791

Value of measured self-cleavage for the entry U65C C75A : 0.0489

Value of measured self-cleavage for the entry G1C G80U : 0.0484

Value of measured self-cleavage for the entry A56U C85G : 0.982

Value of measured self-cleavage for the entry C4A C7G : 0.104

Value of measured self-cleavage for the entry G2U G52C : 0.0339

Value of measured self-cleavage for the entry U12G C61G : 0.798

Value of measured self-cleavage for the entry G11C U47C : 0.453

Value of measured self-cleavage for the entry C36U C63G : 0.493

Value of measured self-cleavage for the entry C21U C48G : 0.181

Value of measured self-cleavage for the entry C41G A78G : 0.208

Value of measured self-cleavage for the entry G17A G74C : 0.0346

Value of measured self-cleavage for the entry A16C A45U : 0.332

Value of measured self-cleavage for the entry A45C C85A : 0.437

Value of measured self-cleavage for the entry G25A C57A : 0.194

Value of measured self-cleavage for the entry A8U U9C : 0.906

Value of measured self-cleavage for the entry G1C C24G : 0.0462

Value of measured self-cleavage for the entry U12A C14U : 0.332

Value of measured self-cleavage for the entry G39A : 0.51

Value of measured self-cleavage for the entry G6C G74A : 0.0875

Value of measured self-cleavage for the entry A8C G53C : 0.739

Value of measured self-cleavage for the entry G29C G39A : 0.0583

Value of measured self-cleavage for the entry G39U A83C : 0.157

Value of measured self-cleavage for the entry C3U G40A : 0.857

Value of measured self-cleavage for the entry U47G G68A : 0.831

Value of measured self-cleavage for the entry C63G C85G : 1.02

Value of measured self-cleavage for the entry C4G U60G : 0.213

Value of measured self-cleavage for the entry G40U G55C : 0.937

Value of measured self-cleavage for the entry G17C A78C : 0.0755

Value of measured self-cleavage for the entry C58U A83U : 0.453

Value of measured self-cleavage for the entry C14A A71G : 0.499

Value of measured self-cleavage for the entry C22G G38C : 0.391

Value of measured self-cleavage for the entry C32U A78U : 0.178
